Molecular target: human mGlu3 (Homo sapiens)
Sequence (Q14832 23-879): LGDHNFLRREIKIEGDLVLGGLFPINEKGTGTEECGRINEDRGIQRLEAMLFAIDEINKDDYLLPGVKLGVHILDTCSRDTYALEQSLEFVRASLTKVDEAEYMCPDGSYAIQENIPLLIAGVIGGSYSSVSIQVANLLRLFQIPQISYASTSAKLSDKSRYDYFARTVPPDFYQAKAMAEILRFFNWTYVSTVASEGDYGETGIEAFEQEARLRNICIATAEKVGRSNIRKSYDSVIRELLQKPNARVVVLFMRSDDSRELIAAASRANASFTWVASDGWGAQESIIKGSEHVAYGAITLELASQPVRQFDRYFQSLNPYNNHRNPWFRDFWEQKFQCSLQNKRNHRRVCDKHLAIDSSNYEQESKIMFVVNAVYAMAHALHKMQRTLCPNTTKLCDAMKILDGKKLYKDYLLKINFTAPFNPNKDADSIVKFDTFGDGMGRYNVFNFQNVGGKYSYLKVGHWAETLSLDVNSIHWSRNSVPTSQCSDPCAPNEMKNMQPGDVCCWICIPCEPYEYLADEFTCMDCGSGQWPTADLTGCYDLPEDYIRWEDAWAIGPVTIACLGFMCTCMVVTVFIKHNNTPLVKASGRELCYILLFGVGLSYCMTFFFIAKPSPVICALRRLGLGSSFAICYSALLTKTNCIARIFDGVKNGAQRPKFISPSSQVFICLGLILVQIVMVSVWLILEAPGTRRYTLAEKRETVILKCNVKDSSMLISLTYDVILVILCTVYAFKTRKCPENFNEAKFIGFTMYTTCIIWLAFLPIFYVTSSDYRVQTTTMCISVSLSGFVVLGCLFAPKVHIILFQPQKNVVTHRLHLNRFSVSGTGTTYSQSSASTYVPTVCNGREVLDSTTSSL

COMPOUND | IC50 / nM
C[C@H]1CN(c2ccc(C(F)(F)F)c(C[18F])c2)C(=O)c2c(NC(=O)c3cccnc3N)cnn21 [compound 1] | 5.01

Every entry's value here was drawn from patent US11045562B2.
